tgt: human TLR7 (Homo sapiens)
Construct: host or cells: HEK293 (HEK-Blue hTLR7)
protocol: HEK-Blue hTLR7 reporter cell assay (SEAP, NF-kB/AP-1) for stimulation of human TLR7
Assay type: cell-based
condition details: HEK-Blue hTLR7 cells, 24 h incubation, SEAP readout; read-out: TLR7_EC50
pEC50: −log10 of the molar value. Counter-ions that a name gives are not always drawn.
If the reported pEC50 equals or exceeds 7, assign YES. If not, assign NO.

QUERY: Evaluate CCCCc1nc2c(N)nnc(OC(C)C)c2n1Cc1ccc(CN[C@H]2C[C@H](O)C2)cc1 [Compound 100, dihydrochloride salt] : pEC50 at minimum 7?
RESULT: YES

QUERY: Another: "CCCCc1nc2c(N)nnc(N(C)Cc3ccc(CN4CCOCC4)cc3)c2n1C"
RESULT: NO

QUERY: Try this molecule too: "CCCCc1nc2c(N)nnc(OC(C)C)c2n1Cc1ccc(CNCCOC)cc1"
RESULT: YES

QUERY: Also need "CCCCc1nc2c(N)nnc(/C=C/C(C)C)c2n1C[C@H]1CC[C@H](N)CC1" , thanks.
RESULT: NO

QUERY: Check "CCCCc1nc2c(N)nnc(N(C)Cc3ccc(C#N)cc3)c2n1C" too.
RESULT: NO

QUERY: Another molecule to check: "CCCCc1nc2c(N)nnc(OC(C)C)c2n1Cc1ccccn1"
RESULT: NO

QUERY: Try the molecule "CCCCc1nc2c(N)nnc(OC(C)C)c2n1Cc1ccc(CN2CCCC2)cc1"
RESULT: YES

QUERY: Please do the same for "CCCCc1nc2c(N)nnc(-c3cccs3)c2n1Cc1ccc(OC)cc1" as well.
RESULT: NO

====

tgt: human TLR8 (Homo sapiens, UniProt Q9NR97)
protocol: HEK-Blue hTLR8 reporter cell assay (SEAP, NF-kB/AP-1) for stimulation of human TLR8
condition details: HEK-Blue hTLR8 cells, 24 h incubation, SEAP readout; read-out: TLR8_EC50
Where a name gives a salt, the structure may show the parent alone.
reported endpoint: EC50 (µM)
Give a bare numeral; the unit µM is implied.

INSERT INTO assay_data (compound, tgt, result_number) VALUES
  ('CCCCc1nc2c(N)nnc(OC(C)C)c2n1Cc1ccc(CNC2CCOCC2)cc1 [Compound 82, hydrochloride]', 'human TLR8 (Homo sapiens, UniProt Q9NR97)', 0.303),
  ('CCCCc1nc2c(N)nnc(OC(C)C)c2n1CC(CO)CO [Compound 157, hydrochloride]', 'human TLR8 (Homo sapiens, UniProt Q9NR97)', 0.007),
  ('CCCCc1nc2c(N)nnc(OC(C)C)c2n1Cc1cccc(CNC2(C)CCC2)c1 [Compound 130, dihydrochloride salt]', 'human TLR8 (Homo sapiens, UniProt Q9NR97)', 1.06);

QUERY: Fill blank: measured EC50 of the compound CCCCc1nc2c(N)nnc(OC(C)CC)c2n1Cc1ccc(OC)cc1 (centres unmarked) is ____.
RESULT: 2.1

====

// values below are reported log10 EC50
tgt: human TLR7 (Homo sapiens)
Construct: host or cells: HEK293 (HEK-Blue hTLR7)
protocol: HEK-Blue hTLR7 reporter cell assay (SEAP, NF-kB/AP-1) for stimulation of human TLR7
Format: cell-based
condition details: HEK-Blue hTLR7 cells, 24 h incubation, SEAP readout; read-out: TLR7_EC50
Field: value | Transform: log10 | Quantity: EC50 | Unit: nM

INSERT INTO assay_data (molecule, result_number) VALUES
  ('CCCCc1nc2c(N)nnc(OC(C)C)c2n1Cc1cccnc1', 2.77),
  ('CCCCc1nc2c(N)nnc(CCC(C)C)c2n1Cc1ccc(CN)cc1', 2.16),
  ('CCCCc1nc2c(N)nnc(NC)c2n1Cc1ccc(OC)cc1', 2.89);

QUERY: Suppose we examine the molecule CCCCc1nc2c(N)nnc(OC(C)C)c2n1Cc1cccc(CN)c1 [Compound 33, 2,2,2-trifluoroacetate] ; what log10 EC50 value has been reported?
RESULT: 2.59

QUERY: Please do the same for CCCCc1nc2c(N)nnc(OC3CCOC3)c2n1Cc1ccc(OC)cc1 (centres unmarked) as well.
RESULT: 2.36

QUERY: What would you report for "CCCCc1nc2c(N)nnc(CC(C)C)c2n1Cc1ccc(OC)cc1" ?
RESULT: 3.07

QUERY: Then what about the molecule "CCCCc1nc2c(N)nnc(N(C)C)c2n1C" ?
RESULT: 3.49

QUERY: Another molecule to check: "CCCCc1nc2c(N)nnc(OCCOC)c2n1Cc1ccc(OC)cc1"
RESULT: 3.10

QUERY: Same read-out for "CCCCc1nc2c(N)nnc(OC(C)C)c2n1CCCCN(C(C)=O)C1CS(=O)(=O)C1" ?
RESULT: 4.26

====

The entries below are paired with their reported activation at 20 µM.
tgt: human TLR8 (Homo sapiens, UniProt Q9NR97)
Construct: host or cells: HEK293 (HEK-Blue hTLR8)
protocol: HEK-Blue hTLR8 reporter cell assay (SEAP, NF-kB/AP-1) for stimulation of human TLR8
Format: cell-based
condition details: 24 h; at 20000 nM; HEK-Blue hTLR8 cells
Protocol: The below tests, involving measuring the in vitro activity of some compounds of the disclosure on TLR7 and TLR8, were carried out using the HEK-Blue™ cells as reporter. In Vitro Assay for Studying the Stimulation of Human TLR7 and TLR8: HEK-Blue™ hTLR7 Cells (#hkb-htlr7) and HEK-Blue™ hTLR8 Cells (#hkb-htlr8) from InvivoGen were used according to the manufacturer's instructions. […]
Report field: quantity (unit follows the number).

INSERT INTO measurements (compound, result) VALUES
  ('CCCCc1nc2c(N)nnc(NC(C)C)c2[nH]1', '6%'),
  ('CCCCc1nc2c(N)nnc(OC(C)C)c2n1Cc1ccc(CNCCOCCOCCOCCOCCOCCOCCOCCOCCOCCOCCOCCOC)cc1', '10.2%'),
  ('CCCCc1nc2c(N)nnc(NCc3ccc(CN4CCN(C)CC4)cc3)c2n1C', '10%'),
  ('CCCCc1nc2c(N)nnc(NCCCc3ccco3)c2n1Cc1ccc(OC)cc1', '11%'),
  ('CCCCc1nc2c(N)nnc(-c3cc[nH]c3)c2n1C[C@H]1CC[C@H](N)CC1', '19.6%'),
  ('CCCCc1nc2c(N)nnc(-c3cc[nH]n3)c2n1Cc1ccc(OC)cc1', '22.7%'),
  ('CCCCc1nc2c(N)nnc(C3CCNC3)c2n1Cc1ccc(CN)cc1 (stereo not drawn)', '11.7%'),
  ('CCCCc1nc2c(N)nnc(-c3ccccc3)c2n1Cc1ccc(OC)cc1', '15%');

QUERY: Which activation at 20 µM is reported for this compound? "CCCNc1nc2c(N)nnc(OC(C)C)c2n1Cc1ccc(CN)cc1"
RESULT: 15.4%

QUERY: Now consider "Cc1nc2c(N)nnc(OC(C)C)c2n1Cc1ccc(CN)cc1" .
RESULT: 18%

QUERY: Then this compound: "CCCCc1nc2c(N)nncc2n1Cc1ccc(OC)cc1"
RESULT: 20.5%

QUERY: Now this one: "CCNCc1nc2c(N)nnc(OC(C)C)c2n1Cc1ccc(CN)cc1"
RESULT: 10.8%

QUERY: Follow-up item: "CCCCc1nc2c(N)nnc(SC(C)C)c2[nH]1"
RESULT: 18%

QUERY: Likewise for "CCCCc1nc2c(N)nnc(O)c2n1Cc1ccc(OC)cc1" ?
RESULT: 17%

QUERY: "CCCCc1nc2c(N)nnc(C3=CCNC3)c2n1Cc1ccc(CN)cc1" , same question.
RESULT: 14.7%

====

tgt: human TLR7 (Homo sapiens, UniProt Q9NYK1)
Construct: host or cells: HEK293 (HEK-Blue hTLR7)
Sequence (Q9NYK1 27-1049): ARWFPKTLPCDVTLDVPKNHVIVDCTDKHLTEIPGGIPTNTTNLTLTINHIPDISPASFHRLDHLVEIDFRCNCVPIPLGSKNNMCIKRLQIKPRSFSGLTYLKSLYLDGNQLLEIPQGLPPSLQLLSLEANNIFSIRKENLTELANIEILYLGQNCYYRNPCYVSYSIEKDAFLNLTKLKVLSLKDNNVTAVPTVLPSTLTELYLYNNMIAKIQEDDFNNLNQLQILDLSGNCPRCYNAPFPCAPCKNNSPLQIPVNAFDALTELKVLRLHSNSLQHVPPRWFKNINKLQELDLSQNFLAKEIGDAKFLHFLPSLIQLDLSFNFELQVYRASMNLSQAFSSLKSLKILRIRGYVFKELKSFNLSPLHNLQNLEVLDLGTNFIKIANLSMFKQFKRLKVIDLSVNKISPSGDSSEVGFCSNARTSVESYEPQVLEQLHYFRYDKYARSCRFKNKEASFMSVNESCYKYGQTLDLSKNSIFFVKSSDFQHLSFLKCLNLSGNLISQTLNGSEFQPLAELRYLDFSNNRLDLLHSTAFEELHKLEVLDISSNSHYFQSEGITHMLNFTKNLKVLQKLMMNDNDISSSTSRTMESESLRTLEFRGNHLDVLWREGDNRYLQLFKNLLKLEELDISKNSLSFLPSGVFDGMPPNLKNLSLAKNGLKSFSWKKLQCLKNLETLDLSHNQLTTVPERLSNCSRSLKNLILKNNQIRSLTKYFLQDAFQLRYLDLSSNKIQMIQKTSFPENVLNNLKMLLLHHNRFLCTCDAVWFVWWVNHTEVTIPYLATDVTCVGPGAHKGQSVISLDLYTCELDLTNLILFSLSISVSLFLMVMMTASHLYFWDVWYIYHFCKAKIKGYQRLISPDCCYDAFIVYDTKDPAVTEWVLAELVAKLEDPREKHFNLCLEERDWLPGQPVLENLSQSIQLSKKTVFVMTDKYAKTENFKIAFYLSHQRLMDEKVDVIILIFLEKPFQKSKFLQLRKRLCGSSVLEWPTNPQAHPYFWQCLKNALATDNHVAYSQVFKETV
protocol: HEK-Blue hTLR7 reporter cell assay (SEAP, NF-kB/AP-1) for stimulation of human TLR7
Assay type: cell-based
condition details: HEK-Blue hTLR7 cells, 24 h incubation, SEAP readout; read-out: TLR7_EC50
EC50 values by entry
Answer format: numeric, nM implied, no suffix.

Worked set:
INSERT INTO assay_data (chemical_string, tgt, result_number) VALUES
  ('CCCCc1nc2c(N)nnc(OC(C)C)c2n1Cc1ccc(CNC(=O)CCOC)cc1', 'human TLR7 (Homo sapiens, UniProt Q9NYK1)', 205),
  ('CCCCc1nc2c(N)nnc(C3CCCCC3)c2n1Cc1ccc(OC)cc1', 'human TLR7 (Homo sapiens, UniProt Q9NYK1)', 1020),
  ('CCCCc1nc2c(N)nnc(OC(C)C)c2n1CCCCNC1CS(=O)(=O)C1', 'human TLR7 (Homo sapiens, UniProt Q9NYK1)', 4390);

QUERY: Need EC50 of "CCCCc1nc2c(N)nnc(OC(C)C)c2n1Cc1ccc(CNC(=O)c2ccccc2)cc1" , thanks.
RESULT: 68

====

tgt: human TLR8 (Homo sapiens, UniProt Q9NR97)
Construct: host or cells: HEK293 (HEK-Blue hTLR8)
Sequence (Q9NR97 27-1041): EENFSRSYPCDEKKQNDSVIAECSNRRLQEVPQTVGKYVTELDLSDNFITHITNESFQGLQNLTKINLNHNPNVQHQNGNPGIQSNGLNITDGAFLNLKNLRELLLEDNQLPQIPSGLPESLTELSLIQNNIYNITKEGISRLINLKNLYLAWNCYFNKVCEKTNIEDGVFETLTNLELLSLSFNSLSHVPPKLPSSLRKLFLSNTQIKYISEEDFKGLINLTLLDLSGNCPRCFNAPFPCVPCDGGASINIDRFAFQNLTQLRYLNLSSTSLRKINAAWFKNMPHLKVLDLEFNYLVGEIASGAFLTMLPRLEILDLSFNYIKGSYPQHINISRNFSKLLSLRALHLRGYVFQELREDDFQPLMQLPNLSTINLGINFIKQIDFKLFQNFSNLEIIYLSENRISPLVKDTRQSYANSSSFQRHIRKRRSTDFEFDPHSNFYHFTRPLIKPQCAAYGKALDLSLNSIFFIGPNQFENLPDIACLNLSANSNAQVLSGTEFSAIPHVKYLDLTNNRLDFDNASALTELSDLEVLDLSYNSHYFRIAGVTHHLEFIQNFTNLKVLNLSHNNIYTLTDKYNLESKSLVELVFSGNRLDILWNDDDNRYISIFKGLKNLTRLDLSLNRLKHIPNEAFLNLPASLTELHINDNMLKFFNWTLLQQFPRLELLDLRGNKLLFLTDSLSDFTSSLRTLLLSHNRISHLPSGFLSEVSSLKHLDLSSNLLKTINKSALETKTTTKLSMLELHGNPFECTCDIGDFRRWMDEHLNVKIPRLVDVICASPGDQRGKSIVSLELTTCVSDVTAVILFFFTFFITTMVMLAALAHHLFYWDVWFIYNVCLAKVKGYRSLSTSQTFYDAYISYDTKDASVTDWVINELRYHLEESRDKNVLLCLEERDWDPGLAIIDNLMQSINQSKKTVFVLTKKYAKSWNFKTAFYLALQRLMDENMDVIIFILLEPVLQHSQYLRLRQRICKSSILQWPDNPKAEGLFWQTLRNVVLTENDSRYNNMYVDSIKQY
protocol: HEK-Blue hTLR8 reporter cell assay (SEAP, NF-kB/AP-1) for stimulation of human TLR8
Assay type: cell-based
condition details: HEK-Blue hTLR8 cells, 24 h incubation, SEAP readout; read-out: TLR8_EC50
reported endpoint: EC50

Example entries begin here.
INSERT INTO measurements (compound, result) VALUES
  ('CCCCc1nc2c(N)nnc(OC(C)C)c2n1Cc1ccc(OC)cc1', '> 20 µM'),
  ('CCCCc1nc2c(N)nnc(OC(C)C)c2n1Cc1ccc(CN)cc1 [Compound 21]', '1.37 µM'),
  ('CCCCc1nc2c(N)nnc(C=C(C)C)c2n1Cc1ccc(OC)cc1', '> 20 µM');

QUERY: // EC50 lookup, key: "CCCCc1nc2c(N)nnc(OC)c2n1Cc1ccc(OC)cc1"
RESULT: > 20 µM

QUERY: Also need "CCCCc1nc2c(N)nnc(N(C)C)c2n1C" , thanks.
RESULT: 7.19 µM

QUERY: Request: "CCCc1nc2c(N)nnc(OC(C)C)c2n1Cc1ccc(CN)cc1"
RESULT: > 20 µM

QUERY: Next up: "CCCCc1nc2c(N)nnc(OC(C)C)c2n1Cc1ccc(CNCC(=O)OC(C)(C)C)cc1"
RESULT: 8.88 µM

QUERY: What do we get for "C=C(C)c1nnc(N)c2nc(CCCC)n(Cc3ccc(OC)cc3)c12" ?
RESULT: > 20 µM

QUERY: Entry to check: CCCCc1nc2c(N)nnc(OC(C)C)c2n1Cc1ccncc1 [Compound 76, 2,2,2-trifluoroacetate]
RESULT: > 20 µM
